Target: human Peroxisome Proliferator-activated Receptor alpha (PPARa), PPARA (gene 5465) (UniProt Q07869)
Sequence (Q07869 whole entry, looked up): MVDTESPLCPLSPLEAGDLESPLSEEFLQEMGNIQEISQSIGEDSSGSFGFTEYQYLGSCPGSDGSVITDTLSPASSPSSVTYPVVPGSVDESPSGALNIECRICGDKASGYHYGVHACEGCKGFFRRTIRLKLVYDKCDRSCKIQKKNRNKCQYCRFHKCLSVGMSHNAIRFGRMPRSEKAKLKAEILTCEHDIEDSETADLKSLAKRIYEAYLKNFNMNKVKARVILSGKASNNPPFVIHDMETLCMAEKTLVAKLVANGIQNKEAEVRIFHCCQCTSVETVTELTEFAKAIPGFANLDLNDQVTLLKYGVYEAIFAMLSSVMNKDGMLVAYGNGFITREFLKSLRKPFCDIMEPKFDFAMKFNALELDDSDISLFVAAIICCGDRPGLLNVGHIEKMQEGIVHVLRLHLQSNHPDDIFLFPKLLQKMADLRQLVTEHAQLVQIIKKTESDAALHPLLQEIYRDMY
Assay: NVS_NR_hPPARa: NovaScreen (NVS) Nuclear Receptor Binding Assay for human Peroxisome Proliferator-activated Receptor alpha (PPARa) (AID 2283359);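 note: activity means loss of TR-FRET signal versus DMSO baseline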
Experimental: NVS_NR_hPPARa is a biochemical, single-readout assay that uses extracted gene-proteins in a cell-free assay. Measurements were taken 1 hour after chemical dosing in a 384-well plate.NVS_NR_hPPARa is one of one assay component(s) measured or calculated from the NVS_NR_hPPARa assay. […] This assay endpoint, NVS_NR_hPPARa, was analyzed in the positive analysis fitting direction relative to DMSO as the negative control and baseline of activity. […]
Records with an inconclusive call do not appear. The source made the active and inactive calls. Rule for the calls: active = hit-call score of the fitted dose curve at least 0.9, where 1 is the maximum; inconclusive = response in the unintended direction; inactive = score below 0.9.
readoutLabel: outcome

Some compounds with recorded outcome:
| sampleSmiles | readoutValue |
| --- | --- |
| ClC(Cl)=C(c1ccc(Cl)cc1)c1ccc(Cl)cc1 | inactive |
| O=C(O)C(F)(F)C(F)(F)C(F)(F)C(F)(F)C(F)(F)C(F)(F)C(F)(F)C(F)(F)F | inactive |
| CC(C)(O)C(=O)Nc1ccc([N+](=O)[O-])c(C(F)(F)F)c1 | inactive |
| Cc1cc2c3c(c1)C(c1ccccc1)=N[C@@H](NC(=O)c1ccncc1)C(=O)N3CC2 | inactive |

Consider now this further compound.
Request: What value of outcome has been reported for the following compound? "O=S(=O)(O)C(F)(F)C(F)(F)C(F)(F)C(F)(F)C(F)(F)C(F)(F)F"
Result: inactive

---

read-out: Apolipoprotein A-V (APOA5) gene, APOA5 (gene 116519); experiment: LTEA_HepaRG_APOA5: Life Technologies and Expression Analysis (LTEA) Assay for Apolipoprotein A-V (APOA5) gene using HepaRG (AID 2283474); conditions: mRNA level, 48 h; actives raise or lower the signal
Active and inactive are the calls of the source. The calls were made as follows: active = hit-call score of the fitted dose curve at least 0.9, where 1 is the maximum; inactive = score below 0.9.
Hi! Could you answer with just one of these? active, inactive

Request: How was "C=CC(N)=O" classified in this test?
Result: inactive

Request: How was C1CC2OC2CC1C1CO1 (stereo not drawn) classified in this test?
Result: inactive

---

Hi there, I'd appreciate the recorded AC50 for every entry that follows.
tested on: SERPINA7 (gene 6906); experiment: CCTE_GLTED_hTBG: CCTE's human Thyroxine-binding Globulin (TBG) Inhibition Assay, Great Lakes Toxicology and Ecology Division (GLTED) Lab (AID 2284343);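 note: active chemicals lower fluorescence versus DMSO baseline by displacing probe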
Active and inactive are the calls of the source. How the source made its calls: active means hit-call score of the fitted dose curve at least 0.9, where 1 is the maximum; inconclusive means response in the unintended direction; inactive means score below 0.9.

Some molecules with recorded AC50:
| sampleSmiles | AC50 |
| --- | --- |
| Sc1ccccc1 | 14.1 µM (active) |
| CC(C)(c1ccccc1)c1ccc(O)cc1 | 3.54 µM (active) |
| O=C(O)C(F)(F)C(F)(F)C(F)(F)C(F)(F)C(F)(F)C(F)(F)C(F)(F)C(F)(F)F | 86.5 µM (active) |
| CCC(C)(c1ccc(O)cc1)c1ccc(O)cc1 | 13.7 µM (active) |
| CCCCCCOC(=O)c1ccccc1C(=O)OCCCCCC | 5.7 µM (active) |
| CC(C)(O)C(=O)Nc1ccc([N+](=O)[O-])c(C(F)(F)F)c1 | 35.6 µM (active) |

Consider now this further molecule.
Request: Request - read-out AC50 | tested on SERPINA7 (gene 6906) | molecule "CCOC(=O)C(O)(c1ccc(Cl)cc1)c1ccc(Cl)cc1"
Result: 7.32 µM (active)

---

read-out: Glutamate-cysteine ligase regulatory (GCLM), GCLM (gene 2730); assay: LTEA_HepaRG_GCLM: Life Technologies and Expression Analysis (LTEA) Assay for Glutamate-cysteine ligase regulatory (GCLM) using HepaRG (AID 2283500); conditions: mRNA level, 48 h; actives raise or lower the signal
The source made the active and inactive calls. The calls were made as follows: active = hit-call score of the fitted dose curve at least 0.9, where 1 is the maximum; inactive = score below 0.9.
Hi! Could you answer with just one of these? label 1 for active, label 0 for inactive

Use the examples below as a reference point.
| compound | labelValue |
| --- | --- |
| CC(C)(O)C(=O)Nc1ccc([N+](=O)[O-])c(C(F)(F)F)c1 | label 0 |
| CCCCCCCCCc1ccc(O)cc1 | label 0 |
| Oc1c(Cl)c(Cl)c(Cl)c(Cl)c1Cl | label 1 |
| Clc1ccc(C(c2ccccc2Cl)C(Cl)(Cl)Cl)cc1 (stereo not drawn) | label 0 |
| Cc1ccccc1O | label 0 |
| CN(C)CCO | label 0 |
| CCCCCCOC(=O)c1ccccc1C(=O)OCCCCCC | label 0 |
| CCOC(=O)C(O)(c1ccc(Cl)cc1)c1ccc(Cl)cc1 | label 0 |
| C[C@]12CCC(=O)C=C1CC[C@@H]1[C@@H]2CC[C@@]2(C)[C@H]1CC[C@]2(C)O | label 0 |
| COc1ccc(O)c(C(C)(C)C)c1 | label 0 |

Request: How was "CN(C)c1nc(=O)n(C2CCCCC2)c(=O)n1C" classified in this test?
Result: label 0

Request: How was "CCCCCCCCCC[N+](C)(C)CCCCCCCCCC" classified in this test?
Result: label 0

Request: How was "O=C(O)C(F)(F)C(F)(F)C(F)(F)C(F)(F)C(F)(F)C(F)(F)C(F)(F)C(F)(F)F" classified in this test?
Result: label 1

---

read-out: Insulin-like growth factor-binding protein 1 (IGFBP1), IGFBP1 (gene 3484); experiment: LTEA_HepaRG_IGFBP1: Life Technologies and Expression Analysis (LTEA) Assay for Insulin-like growth factor-binding protein 1 (IGFBP1) using HepaRG (AID 2283508); conditions: mRNA level, 48 h; actives raise or lower the signal
Active and inactive are the calls of the source. Rule for the calls: active = hit-call score of the fitted dose curve at least 0.9, where 1 is the maximum; inactive = score below 0.9.
readoutLabel: AC50

| compound | AC50 |
| --- | --- |
| ClC1=C(Cl)[C@]2(Cl)[C@@H]3[C@H]4C[C@H]([C@@H]5O[C@H]45)[C@@H]3[C@@]1(Cl)C2(Cl)Cl | inactive |
| CCCCCCOC(=O)c1ccccc1C(=O)OCCCCCC | inactive |
| CC(c1ccc(O)cc1)(c1ccc(O)cc1)c1ccc(O)cc1 | 18.8 µM (active) |
| Cc1cc(-c2ccc(N)c(C)c2)ccc1N | inactive |
| O=C(N[C@H]1CN2CCC1CC2)c1cc2ccoc2cn1 | inactive |
| O=C(O)C(F)(F)C(F)(F)C(F)(F)C(F)(F)C(F)(F)C(F)(F)C(F)(F)C(F)(F)C(F)(F)F | 27.9 µM (active) |
| CN(C)c1nc(=O)n(C2CCCCC2)c(=O)n1C | inactive |
| NS(=O)(=O)C(F)(F)C(F)(F)C(F)(F)C(F)(F)C(F)(F)C(F)(F)C(F)(F)C(F)(F)F | 21.6 µM (active) |
| Cc1cc2c3c(c1)C(c1ccccc1)=N[C@@H](NC(=O)c1ccncc1)C(=O)N3CC2 | inactive |

Consider now this further compound.
Request: What value of AC50 has been reported for the following compound? Clc1ccc(C(c2ccccc2Cl)C(Cl)(Cl)Cl)cc1 (stereo not given)
Result: inactive

---

read-out: CYP2C9 (gene 1559); assay: LTEA_HepaRG_CYP2C9: Life Technologies and Expression Analysis (LTEA) Assay for CYP2C9 using HepaRG (AID 2283484); settings: mRNA level, 48 h; actives raise or lower the signal
Calls of active or inactive are those of the source. How the source made its calls: active means hit-call score of the fitted dose curve at least 0.9, where 1 is the maximum; inactive means score below 0.9.
Hi! Could you answer with just one of these? YES = active, NO = inactive

Use the examples below as a reference point.
| compound | labelValue |
| --- | --- |
| Cc1cc(O)ccc1Cl | NO |
| CCC(C)(CC)c1cc(NC(=O)c2c(OC)cccc2OC)on1 | NO |
| ClC1=C(Cl)[C@]2(Cl)[C@@H]3[C@@H](Cl)[C@H]4O[C@H]4[C@@H]3C1(Cl)C2(Cl)Cl | NO |

Request: How was "CCCCCCCCCc1ccc(O)cc1" classified in this test?
Result: NO

Request: How was "Cc1cc(-c2ccc(N)c(C)c2)ccc1N" classified in this test?
Result: NO

Request: How was "COS(=O)(=O)OC" classified in this test?
Result: NO

Request: How was "CCC(C)(c1ccc(O)cc1)c1ccc(O)cc1" classified in this test?
Result: NO

Request: How was "C=CC(N)=O" classified in this test?
Result: NO

Request: How was "Clc1ccc(Cl)cc1" classified in this test?
Result: NO

Request: How was "Cc1cc2c3c(c1)C(c1ccccc1)=N[C@@H](NC(=O)c1ccncc1)C(=O)N3CC2" classified in this test?
Result: NO

Request: How was "CCCCCCCCOC(=O)c1ccccc1C(=O)OCCCCCCCC" classified in this test?
Result: NO

Request: How was "CC#Cc1cc(C)nc(Nc2ccccc2)n1" classified in this test?
Result: YES

Request: How was CC(C)C(=O)OCC(C)(C)C(OC(=O)C(C)C)C(C)C (stereo not drawn) classified in this test?
Result: NO

---

read-out: Cytochrome P450 3A4 (Homo sapiens); assay: CLD_CYP3A4_48hr: CellzDirect (CLD) Gene Expression Assay for xenobiotic metabolism (CYP3A4) at 48 hours (AID 2283698)
Results filed as inconclusive are left out. Active and inactive are the calls of the source. The calls were made as follows: active = hit-call score of the fitted dose curve at least 0.9, where 1 is the maximum; inconclusive = response in the unintended direction; inactive = score below 0.9.
Hi! Could you answer with just one of these? 1 (active), 0 (inactive)

Request: How was "CN(C)c1nc(=O)n(C2CCCCC2)c(=O)n1C" classified in this test?
Result: 0
